targetOrTestSystem: Melanocortin receptor 4 (Mus musculus, UniProt P56450)
Sequence (P56450 whole entry): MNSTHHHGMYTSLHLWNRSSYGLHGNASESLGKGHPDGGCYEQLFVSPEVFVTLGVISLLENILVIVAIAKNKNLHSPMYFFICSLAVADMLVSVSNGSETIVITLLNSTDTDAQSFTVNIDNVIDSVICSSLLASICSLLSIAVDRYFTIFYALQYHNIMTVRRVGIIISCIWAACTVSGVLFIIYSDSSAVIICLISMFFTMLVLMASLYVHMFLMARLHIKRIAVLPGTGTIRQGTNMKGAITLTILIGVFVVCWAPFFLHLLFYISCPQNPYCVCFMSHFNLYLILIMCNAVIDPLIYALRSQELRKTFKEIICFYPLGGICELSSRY
measurementDescription: Agonist activity at mouse MC4R expressed in HEK293 cells by beta-galactosidase assay
Format: functional, cell-based
readoutKind: EC50

Consider the compound shown here: `CC(C)C[C@H](NC(=O)[C@H](CCCCN)NC(=O)[C@H](CCCNC(=N)N)NC(=O)[C@H](C)NC(=O)[C@H](Cc1ccc(O)cc1)NC(=O)[C@@H]1CSSC[C@H](NC(=O)[C@H](Cc2ccc(O)cc2)NC(=O)[C@H](C)NC(=O)[C@@H](NC(=O)[C@H](C)NC(=O)[C@H](C)NC(=O)[C@@H]2CCCN2C(=O)[C@@H](N)CC(=O)O)[C@@H](C)O)C(=O)N[C@H](CCCNC(=N)N)C(=O)N[C@H](Cc2ccccc2)C(=O)N[C@@H](Cc2ccccc2)C(=O)N[C@@H](CC(N)=O)C(=O)N[C@@H](C)C(=O)N[C@@H](Cc2ccccc2)C(=O)N1)C(=O)O` What is its recorded EC50?
8.3 µM (agonist)

----------
targetOrTestSystem: Melanocortin receptor 4 (Mus musculus)
measurementDescription: Agonist activity at mouse MC4R expressed in HEK293 cells by beta-galactosidase assay
Assay type: functional, cell-based
readoutKind: EC50

Consider the molecule `CC(C)C[C@H](NC(=O)[C@H](CCCCN)NC(=O)[C@H](CCCNC(=N)N)NC(=O)[C@H](C)NC(=O)[C@H](Cc1ccc(O)cc1)NC(=O)[C@@H]1CSSC[C@H](NC(=O)[C@H](Cc2ccc(O)cc2)NC(=O)[C@H](C)NC(=O)[C@@H](NC(=O)[C@H](C)NC(=O)[C@H](C)NC(=O)[C@@H]2CCCN2C(=O)[C@@H](N)CC(=O)O)[C@@H](C)O)C(=O)N[C@H](CCCNC(=N)N)C(=O)N[C@H](Cc2ccccc2)C(=O)N[C@H](Cc2ccccc2)C(=O)N[C@@H](CC(N)=O)C(=O)N[C@@H](C)C(=O)N[C@@H](Cc2ccccc2)C(=O)N1)C(=O)O` and give its measured EC50.
21.5 µM (agonist)

----------
targetOrTestSystem: Melanocortin receptor 5 (Mus musculus, UniProt P41149)
Sequence (P41149 whole entry): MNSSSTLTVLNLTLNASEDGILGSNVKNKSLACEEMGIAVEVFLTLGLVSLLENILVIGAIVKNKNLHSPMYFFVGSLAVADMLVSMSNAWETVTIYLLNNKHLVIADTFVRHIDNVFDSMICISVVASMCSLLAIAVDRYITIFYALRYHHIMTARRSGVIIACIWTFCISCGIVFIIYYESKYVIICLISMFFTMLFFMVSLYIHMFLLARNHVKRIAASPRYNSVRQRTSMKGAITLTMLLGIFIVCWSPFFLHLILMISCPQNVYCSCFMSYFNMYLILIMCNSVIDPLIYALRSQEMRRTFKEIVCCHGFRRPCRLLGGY
measurementDescription: Agonist activity at mouse MC5R expressed in HEK293 cells by beta-galactosidase assay
Format: functional, cell-based
Reported EC50 is given for each of the following compounds.

State the recorded EC50 for this entry: `CC(C)C[C@H](NC(=O)[C@H](CCCCN)NC(=O)[C@H](CCCNC(=N)N)NC(=O)[C@H](C)NC(=O)[C@H](Cc1ccc(O)cc1)NC(=O)[C@@H]1CSSC[C@H](NC(=O)[C@H](Cc2ccc(O)cc2)NC(=O)[C@H](C)NC(=O)[C@@H](NC(=O)[C@H](C)NC(=O)[C@H](C)NC(=O)[C@@H]2CCCN2C(=O)[C@@H](N)CC(=O)O)[C@@H](C)O)C(=O)N[C@H](CCCNC(=N)N)C(=O)N[C@@H](Cc2ccccc2)C(=O)N[C@H](Cc2ccccc2)C(=O)N[C@@H](CC(N)=O)C(=O)N[C@@H](C)C(=O)N[C@@H](Cc2ccccc2)C(=O)N1)C(=O)O`
19.8 µM (agonist)

Which value of EC50 has been reported for `CC(C)C[C@H](NC(=O)[C@H](CCCCN)NC(=O)[C@H](CCCNC(=N)N)NC(=O)[C@H](C)NC(=O)[C@H](Cc1ccc(O)cc1)NC(=O)[C@@H]1CSSC[C@H](NC(=O)[C@H](Cc2ccc(O)cc2)NC(=O)[C@H](C)NC(=O)[C@@H](NC(=O)[C@H](C)NC(=O)[C@H](C)NC(=O)[C@@H]2CCCN2C(=O)[C@@H](N)CC(=O)O)[C@@H](C)O)C(=O)N[C@H](CCCNC(=N)N)C(=O)N[C@H](Cc2ccccc2)C(=O)N[C@@H](Cc2ccccc2)C(=O)N[C@@H](CC(N)=O)C(=O)N[C@@H](C)C(=O)N[C@@H](Cc2ccccc2)C(=O)N1)C(=O)O` in the records?
4.6 µM (agonist)

I'd like to know its EC50. The compound in question is `CC(C)C[C@H](NC(=O)[C@H](CCCCN)NC(=O)[C@H](CCCNC(=N)N)NC(=O)[C@H](C)NC(=O)[C@H](Cc1ccc(O)cc1)NC(=O)[C@@H]1CSSC[C@H](NC(=O)[C@H](Cc2ccc(O)cc2)NC(=O)[C@H](C)NC(=O)[C@@H](NC(=O)[C@H](C)NC(=O)[C@H](C)NC(=O)[C@@H]2CCCN2C(=O)[C@@H](N)CC(=O)O)[C@@H](C)O)C(=O)N[C@H](CCCNC(=N)N)C(=O)N[C@@H](Cc2ccccc2)C(=O)N[C@@H](Cc2ccccc2)C(=O)N[C@@H](CC(N)=O)C(=O)N[C@@H](C)C(=O)N[C@@H](Cc2ccccc2)C(=O)N1)C(=O)O`
18.3 µM (agonist)

// lookup EC50 for `CC(C)C[C@H](NC(=O)[C@H](CCCCN)NC(=O)[C@H](CCCNC(=N)N)NC(=O)[C@H](C)NC(=O)[C@H](Cc1ccc(O)cc1)NC(=O)[C@@H]1CSSC[C@H](NC(=O)[C@H](Cc2ccc(O)cc2)NC(=O)[C@H](C)NC(=O)[C@@H](NC(=O)[C@H](C)NC(=O)[C@H](C)NC(=O)[C@@H]2CCCN2C(=O)[C@@H](N)CC(=O)O)[C@@H](C)O)C(=O)N[C@@H](CCCNC(=N)N)C(=O)N[C@H](Cc2ccccc2)C(=O)N[C@H](Cc2ccccc2)C(=O)N[C@@H](CC(N)=O)C(=O)N[C@@H](C)C(=O)N[C@@H](Cc2ccccc2)C(=O)N1)C(=O)O`
11.4 µM (agonist)

May I ask what EC50 has been recorded for `CC(C)C[C@H](NC(=O)[C@H](CCCCN)NC(=O)[C@H](CCCNC(=N)N)NC(=O)[C@H](C)NC(=O)[C@H](Cc1ccc(O)cc1)NC(=O)[C@@H]1CSSC[C@H](NC(=O)[C@H](Cc2ccc(O)cc2)NC(=O)[C@H](C)NC(=O)[C@@H](NC(=O)[C@H](C)NC(=O)[C@H](C)NC(=O)[C@@H]2CCCN2C(=O)[C@@H](N)CC(=O)O)[C@@H](C)O)C(=O)N[C@H](CCCNC(=N)N)C(=O)N[C@H](Cc2ccccc2)C(=O)N[C@H](Cc2ccccc2)C(=O)N[C@@H](CC(N)=O)C(=O)N[C@@H](C)C(=O)N[C@@H](Cc2ccccc2)C(=O)N1)C(=O)O` ?
13.2 µM (agonist)

// returns reported EC50 for input `CC(C)C[C@H](NC(=O)[C@H](CCCCN)NC(=O)[C@H](CCCNC(=N)N)NC(=O)[C@H](C)NC(=O)[C@H](Cc1ccc(O)cc1)NC(=O)[C@@H]1CSSC[C@H](NC(=O)[C@H](Cc2ccc(O)cc2)NC(=O)[C@H](C)NC(=O)[C@@H](NC(=O)[C@H](C)NC(=O)[C@H](C)NC(=O)[C@@H]2CCCN2C(=O)[C@@H](N)CC(=O)O)[C@@H](C)O)C(=O)N[C@@H](CCCNC(=N)N)C(=O)N[C@H](Cc2ccccc2)C(=O)N[C@@H](Cc2ccccc2)C(=O)N[C@@H](CC(N)=O)C(=O)N[C@@H](C)C(=O)N[C@@H](Cc2ccccc2)C(=O)N1)C(=O)O`
1.41 µM (agonist)
